system: Aspergillus fumigatus; assay: MIC measurement, YAG medium; format: cell-based; settings: Aspergillus fumigatus; YAG medium; MIC banded into grades; strain AF293; read-out: MIC A. fumigatus
Recorded MIC for the following molecules

>>> print(df.to_string())
                                   molecule  observed_property      result
0  Cc1cc(C)nc(N2CCCN(c3ccc(NC(=O)C(=O)c4c(-c5ccccc5)cc5ccccn45)cc3)CC2)c1 [Example 54]                MIC   < 1 µg/mL
1  Cc1cc(C)nc(N2CCN(c3ccc(NC(=O)C(=O)c4c(C(C)(C)C)cc5ccccn45)cc3)CC2)c1 [Example 62]                MIC  > 10 µg/mL
2  CCc1ccnc(N2CCN(c3ccc(NC(=O)C(=O)c4c(-c5ccccc5)cc5ccccn45)cc3)CC2)c1 [Example 75]                MIC   < 1 µg/mL

Please report the measured MIC for C=C1CCN(c2ccc(NC(=O)C(=O)c3c(-c4cccnc4C)cc4ccccn34)cc2)CC1 [Example 46]
< 1 µg/mL

Please report the measured MIC for O=C(Nc1ccc(N2CCN(c3ccccn3)CC2)cc1)C(=O)c1c(-c2ccccc2)cc2ccc(F)cn12 [Example 42]
< 1 µg/mL
